Data credit: patent US10131644B2

# IC50 per record follows
# assay-target: RORc (Homo sapiens, UniProt P51449)
measured-attribute: IC50 (nM)

[[record]]
line_notation = "CC(=O)N[C@H]1CC[C@](C#N)(c2ccc(CN3[C@@H](C)CC[C@@H](c4ccccc4)S3(=O)=O)c(F)c2)CC1"
reported = 1800

[[record]]
line_notation = "C[C@H]1CC[C@H](c2ccccc2)S(=O)(=O)N1Cc1ccc(C2(CCC(N)=O)CCOCC2)cc1F"
reported = 8.8

[[record]]
line_notation = "C[C@H]1CC[C@H](c2ccccc2)S(=O)(=O)N1Cc1ccc(C2(C#N)CC(=O)C2)cc1F"
reported = 63.9

[[record]]
line_notation = "C[C@H]1CC[C@H](c2ccccc2)S(=O)(=O)N1Cc1ccc(C2(COCC(N)=O)CCOCC2)cc1F"
reported = 16


====

# assay-target: RORc (Homo sapiens)
# Sequence (P51449 269-508 limits assumed): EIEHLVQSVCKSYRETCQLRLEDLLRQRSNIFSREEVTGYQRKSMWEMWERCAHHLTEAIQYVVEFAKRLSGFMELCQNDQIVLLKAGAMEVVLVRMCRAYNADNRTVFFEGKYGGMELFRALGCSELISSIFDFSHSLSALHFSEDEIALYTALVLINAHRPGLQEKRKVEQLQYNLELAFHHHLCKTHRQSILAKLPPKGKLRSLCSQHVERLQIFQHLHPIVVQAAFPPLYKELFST
# log10 IC50 per record follows
measured-attribute: log10 IC50 (log10 of the value in nM)

[[record]]
molecule = "CC(=O)NCCNC(=O)C1(c2ccc(CN3[C@@H](C)CC[C@H](c4ccccc4)S3(=O)=O)c(F)c2)CCOCC1 [Compound 50]"
reported = 2.40

[[record]]
molecule = "C[C@H]1CC[C@H](c2ccccc2)S(=O)(=O)N1Cc1ccc(C2(CCC#N)CCOCC2)cc1F [Compound 86]"
reported = 0.89

[[record]]
molecule = "COCCCOCC1(c2ccc(CN3[C@@H](C)CC[C@H](c4ccccc4)S3(=O)=O)c(F)c2)CCOCC1 [Compound 91]"
reported = 2.01

[[record]]
molecule = "C[C@H]1CC[C@H](c2ccccc2)S(=O)(=O)N1Cc1cc(F)c([C@]2(O)CC[C@@H](n3cnnc3)CC2)cc1F [Compound 37]"
reported = 1.30

[[record]]
molecule = "CC(=O)N1CCC(C(N)=O)(c2cc(F)c(CN3[C@@H](C)CC[C@H](c4ccccc4)S3(=O)=O)cc2F)CC1 [Compound 149]"
reported = 1.06

[[record]]
molecule = "C[C@H]1CC[C@H](c2ccccc2)S(=O)(=O)N1Cc1cc(F)c(C2(CO)CCC(n3cnnc3)CC2)cc1F (some centres unmarked) [Compound 133]"
reported = 0.72

[[record]]
molecule = "C[C@H]1CC[C@H](c2ccccc2)S(=O)(=O)N1Cc1ccc(C2(C(=O)NCC(C)(C)O)CCOCC2)cc1F [Compound 62]"
reported = 2.17

[[record]]
molecule = "COCCNC(=O)C1(c2ccc(CN3[C@@H](C)CC[C@H](c4ccccc4)S3(=O)=O)c(F)c2)CCOCC1 [Compound 64]"
reported = 1.95

[[record]]
molecule = "C[C@H]1CC[C@H](c2ccccc2)S(=O)(=O)N1Cc1ccc(C2(N(C)CC(N)=O)CCOCC2)cc1F [Compound 188]"
reported = 1.38

[[record]]
molecule = "CC(=O)N1CCC(O)(c2ccc(CN3[C@@H](C)CC[C@H](c4ccccc4)S3(=O)=O)c(F)c2)CC1 [Example 9]"
reported = 2.11

[[record]]
molecule = "C[C@H]1CC[C@H](c2ccccc2)S(=O)(=O)N1Cc1cc(F)c(C2(CO)CC2)cc1F [Compound 126]"
reported = 1.70

[[record]]
molecule = "CCOC(=O)CCC1(c2ccc(CN3[C@@H](C)CC[C@H](c4ccccc4)S3(=O)=O)c(F)c2)CCOCC1 [Compound 79]"
reported = 0.69

[[record]]
molecule = "C[C@H]1CC[C@H](c2ccccc2)S(=O)(=O)N1Cc1cc(F)c(C2(OCC(O)CO)CCOCC2)cc1F (stereo in doubt) [Compound 170]"
reported = 1.07

[[record]]
molecule = "C[C@H]1CC[C@@H](c2ccccc2)S(=O)(=O)N1Cc1cc(F)c(C2(CO)CCC(O)CC2)cc1F (some centres unmarked) [Compound 132]"
reported = 2.38


====

# IC50 per record follows
# assay-target: RORc (Homo sapiens)
# Sequence (P51449 269-508 limits assumed): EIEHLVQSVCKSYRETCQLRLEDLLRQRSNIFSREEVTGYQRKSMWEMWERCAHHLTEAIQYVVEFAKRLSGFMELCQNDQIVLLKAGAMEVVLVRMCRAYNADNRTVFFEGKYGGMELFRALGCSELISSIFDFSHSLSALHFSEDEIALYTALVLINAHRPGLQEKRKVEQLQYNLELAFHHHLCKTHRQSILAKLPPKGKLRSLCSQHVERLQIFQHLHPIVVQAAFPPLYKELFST
measured-attribute: IC50 (nM)

[[record]]
molecule = "CC(=O)N(C)CC1(c2ccc(CN3[C@@H](C)CC[C@H](c4ccccc4)S3(=O)=O)c(F)c2)CCOCC1 [Compound 80]"
reported = 104

[[record]]
molecule = "C[C@H]1CC[C@H](c2ccccc2)S(=O)(=O)N1Cc1ccc(C2(COCCCO)CCOCC2)cc1F [Compound 92]"
reported = 75.8

[[record]]
molecule = "CC(=O)N1CCC(O)(c2ccc(CN3[C@@H](C)CC[C@H](c4ccccc4)S3(=O)=O)cc2)CC1 [Example 7]"
reported = 330

[[record]]
molecule = "C[C@H]1CC[C@H](c2ccccc2)S(=O)(=O)N1Cc1ccc(C2(C(=O)NCCCO)CCOCC2)cc1F [Compound 54]"
reported = 79.8

[[record]]
molecule = "CCOC(=O)COCC1(c2ccc(CN3[C@@H](C)CC[C@H](c4ccccc4)S3(=O)=O)c(F)c2)CCOCC1 [Compound 104]"
reported = 23.8

[[record]]
molecule = "COC(CNC1(c2cc(F)c(CN3[C@@H](C)CC[C@H](c4ccccc4)S3(=O)=O)cc2F)CCOCC1)OC [Compound 189]"
reported = 71

[[record]]
molecule = "C[C@H]1CC[C@H](c2ccccc2)S(=O)(=O)N1Cc1ccc([C@]2(C#N)CC[C@@H](n3cnnc3)CC2)cc1 [Example 10]"
reported = 150


====

# assay-target: RORc (Homo sapiens)
measured-attribute: IC50 (nM)

[[record]]
compound = "CCOC(=O)C[C@H](O)C1(c2ccc(CN3[C@@H](C)CC[C@H](c4ccccc4)S3(=O)=O)c(F)c2)CCOCC1 [Compound 115]"
unit_string = "nM"
reported = 39.5

[[record]]
compound = "C[C@H]1CC[C@H](c2ccccc2)S(=O)(=O)N1Cc1cc(F)c(C2(OCC(N)=O)CCOCC2)cc1F [Compound 150]"
unit_string = "nM"
reported = 6.1

[[record]]
compound = "COC(=O)[C@]1(c2ccc(CN3[C@@H](C)CC[C@H](c4ccccc4)S3(=O)=O)cc2)CC[C@@H](n2cnnc2)CC1 [Example 12]"
unit_string = "nM"
reported = 630

[[record]]
compound = "C[C@H]1CC[C@H](c2ccccc2)S(=O)(=O)N1Cc1ccc(C2(CO)CCOCC2)cc1F [Compound 68]"
unit_string = "nM"
reported = 38.5

[[record]]
compound = "C[C@H]1CC[C@H](c2ccccc2)S(=O)(=O)N1Cc1cc(F)c(C2(OCC(O)CO)CCOCC2)cc1F (stereo partly shown) [Compound 151]"
unit_string = "nM"
reported = 7.8

[[record]]
compound = "CC(OC1(c2ccc(CN3[C@@H](C)CC[C@H](c4ccccc4)S3(=O)=O)c(F)c2)CCOCC1)C(N)=O (stereo partly shown) [Compound 174]"
unit_string = "nM"
reported = 37.9

[[record]]
compound = "C[C@H]1CC[C@H](c2ccccc2)S(=O)(=O)N1Cc1ccc(C2(NCC(=O)N(C)C)CCOCC2)cc1F [Compound 166]"
unit_string = "nM"
reported = 27.6

[[record]]
compound = "C[C@H]1CC[C@H](c2ccccc2)S(=O)(=O)N1Cc1ccc(C2(C(=O)NCCS(C)(=O)=O)CCOCC2)cc1F [Compound 60]"
unit_string = "nM"
reported = 111

[[record]]
compound = "C[C@H]1CC[C@H](c2ccccc2)S(=O)(=O)N1Cc1ccc(C2(C(N)=O)CCOCC2)cc1 [Compound 31]"
unit_string = "nM"
reported = 420

[[record]]
compound = "C[C@H]1CC[C@H](c2ccccc2)S(=O)(=O)N1Cc1cc(F)c(C2(C(N)=O)CC(F)(F)C2)cc1F [Compound 194]"
unit_string = "nM"
reported = 3.05

[[record]]
compound = "C[C@H]1CC[C@H](c2ccccc2)S(=O)(=O)N1Cc1ccc([C@]2(CO)CC[C@@H](n3cnnc3)CC2)cc1F [Compound 26]"
unit_string = "nM"
reported = 32

[[record]]
compound = "C[C@H]1CC[C@H](c2ccccc2)S(=O)(=O)N1Cc1ccc(C2(CN)CCOCC2)cc1F [Compound 75]"
unit_string = "nM"
reported = 639

[[record]]
compound = "C[C@H]1CC[C@H](c2ccccc2)S(=O)(=O)N1Cc1cc(F)c(C2(COCC(N)=O)CC2)cc1F [Compound 127]"
unit_string = "nM"
reported = 20

[[record]]
compound = "CCOC(=O)[C@@H](C)NC1(c2ccc(CN3[C@@H](C)CC[C@H](c4ccccc4)S3(=O)=O)c(F)c2)CCOCC1 [Compound 172]"
unit_string = "nM"
reported = 120

[[record]]
compound = "C[C@H]1CC[C@H](c2ccccc2)S(=O)(=O)N1Cc1cc(F)c(C2(OCC(O)CO)COC2)cc1F (stereo partly shown) [Compound 142]"
unit_string = "nM"
reported = 20.6

[[record]]
compound = "C[C@H]1CC[C@H](c2ccccc2)S(=O)(=O)N1Cc1ccc(C2(NC[C@H](O)CO)CCOCC2)cc1F [Compound 107]"
unit_string = "nM"
reported = 22.6

[[record]]
compound = "C[C@H]1CC[C@H](c2ccccc2)S(=O)(=O)N1Cc1ccc(C2(C(N)=O)CCOCC2)cc1F [Compound 67]"
unit_string = "nM"
reported = 18

[[record]]
compound = "C[C@H]1CC[C@H](c2ccccc2)S(=O)(=O)N1Cc1ccc([C@]2(C(=O)O)CC[C@H](n3cnnc3)CC2)cc1 [Example 13]"
unit_string = "nM"
reported = 2700

[[record]]
compound = "C[C@H]1CC[C@H](c2ccccc2)S(=O)(=O)N1Cc1ccc(C2(OCC(=O)O)CCOCC2)cc1F [Compound 110]"
unit_string = "nM"
reported = 62.9

[[record]]
compound = "C[C@H]1CC[C@H](c2ccccc2)S(=O)(=O)N1Cc1ccc(C2(CO)CCOCC2)cc1 [Compound 32]"
unit_string = "nM"
reported = 310

[[record]]
compound = "C[C@H]1CC[C@H](c2ccccc2)S(=O)(=O)N1Cc1ccc(C2(NCCO)CCOCC2)cc1F [Compound 106]"
unit_string = "nM"
reported = 137

[[record]]
compound = "C[C@H]1CC[C@@H](c2ccccc2)S(=O)(=O)N1Cc1cc(F)c(C2(CO)CCC(O)CC2)cc1F (stereo partly shown) [Compound 131]"
unit_string = "nM"
reported = 72.8

[[record]]
compound = "C[C@H]1CC[C@H](c2ccccc2)S(=O)(=O)N1Cc1ccc(C2([C@H](O)CO)CCOCC2)cc1F [Compound 103]"
unit_string = "nM"
reported = 68.9

[[record]]
compound = "C[C@H]1CC[C@H](c2ccccc2)S(=O)(=O)N1Cc1ccc(C2(OCCO)CCOCC2)cc1F [Compound 99]"
unit_string = "nM"
reported = 66.4

[[record]]
compound = "COC(=O)C1(c2ccc(CN3[C@@H](C)CC[C@H](c4ccccc4)S3(=O)=O)c(F)c2)CCN(C(C)=O)CC1 [Compound 124]"
unit_string = "nM"
reported = 13

[[record]]
compound = "C[C@H]1CC[C@H](c2ccccc2)S(=O)(=O)N1Cc1ccc(C2(C(=O)NCC(=O)N(C)C)CCOCC2)cc1F [Compound 56]"
unit_string = "nM"
reported = 403

[[record]]
compound = "C[C@H]1CC[C@H](c2ccccc2)S(=O)(=O)N1Cc1ccc(C2([C@H](O)CCO)CCOCC2)cc1F [Compound 118]"
unit_string = "nM"
reported = 16.6

[[record]]
compound = "CC(=O)N1CC(OCC(N)=O)(c2cc(F)c(CN3[C@@H](C)CC[C@H](c4ccccc4)S3(=O)=O)cc2F)C1 [Compound 175]"
unit_string = "nM"
reported = 4.9

